TARGET SYSTEM: Adenosine receptor A2a (Homo sapiens)
Sequence (P29274 whole entry): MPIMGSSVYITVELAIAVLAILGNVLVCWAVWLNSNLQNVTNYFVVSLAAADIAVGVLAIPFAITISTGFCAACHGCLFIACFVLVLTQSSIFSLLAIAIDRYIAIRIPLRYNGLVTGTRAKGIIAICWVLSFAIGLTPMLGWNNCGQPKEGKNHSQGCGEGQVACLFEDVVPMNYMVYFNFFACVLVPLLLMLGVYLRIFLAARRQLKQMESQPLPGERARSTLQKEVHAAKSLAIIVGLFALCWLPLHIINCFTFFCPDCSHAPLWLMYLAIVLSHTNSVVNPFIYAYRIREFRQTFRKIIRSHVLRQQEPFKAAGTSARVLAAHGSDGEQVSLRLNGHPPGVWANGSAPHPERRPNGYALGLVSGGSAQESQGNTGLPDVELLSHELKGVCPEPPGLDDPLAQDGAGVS
pKi: −log10 of the molar value.
ATTRIBUTE MEASURED: pKi

- COMPOUND: "CCNC(=O)[C@H]1OC(n2cnc3c(NCCNc4ccc([N+](=O)[O-])c5nonc45)ncnc32)[C@H](O)[C@@H]1O (some centres not stated)"
  pKi: 5.17
- COMPOUND: "CCNC(=O)[C@H]1OC(n2cnc3c(NCCCCCCCCCCNc4ccc([N+](=O)[O-])c5nonc45)ncnc32)[C@H](O)[C@@H]1O (some centres not stated)"
  pKi: 5.21

---

TARGET SYSTEM: Adenosine receptor A1 (Homo sapiens, UniProt P30542)
Sequence (P30542 whole entry): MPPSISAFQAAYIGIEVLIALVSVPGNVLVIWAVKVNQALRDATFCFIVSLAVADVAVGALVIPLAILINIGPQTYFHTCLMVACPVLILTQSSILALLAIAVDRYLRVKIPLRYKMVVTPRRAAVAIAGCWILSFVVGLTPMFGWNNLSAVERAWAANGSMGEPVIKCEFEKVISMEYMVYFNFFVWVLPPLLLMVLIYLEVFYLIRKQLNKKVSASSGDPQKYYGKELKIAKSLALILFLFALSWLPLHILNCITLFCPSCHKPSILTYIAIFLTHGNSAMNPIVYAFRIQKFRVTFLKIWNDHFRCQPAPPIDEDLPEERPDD
ATTRIBUTE MEASURED: pKi
In textbook form, pKi equals minus log to base ten of the concentration in mol/L.

Query string: Enter measured pKi, system Adenosine receptor A1 (Homo sapiens, UniProt P30542), for the compound shown: CCNC(=O)[C@H]1OC(n2cnc3c(NCCCCCCCCNc4ccc([N+](=O)[O-])c5nonc45)ncnc32)[C@H](O)[C@@H]1O (some centres not stated)
Result string: 5.46
